IC50 overview
- targetDesc: cGAS (Homo sapiens)
- assayProtocol: cGAS enzymatic assay (FP/TR-FRET detection of cGAMP)
- Assay type: biochemical
- Set-up: The cGAS assay was used to screen 100,000 compounds with full-length human cGAS; 6xHis; made in house
- conditionsUsed: cGAS (30 nM); read-out: Inhibition cGAS

Recorded IC50, per entry:
Exam item: Form field: reported IC50 of Cc1nc(N2[C@H](C(=O)O)C[C@@H]3C[C@@H]32)c2oc3ccccc3c2n1
Marked response: 1 to 10 µM

Exam item: // lookup IC50 for Cc1cc(CC(=O)N[C@H]2C[C@@H](C(=O)O)N(c3nc(C)nc4c3oc3ccccc34)C2)ccn1
Marked response: 1 to 10 µM

Exam item: Could you share which IC50 value was measured for Cc1nc(N2C[C@@H](CC(=O)Nc3ccccc3)C[C@H]2C(=O)O)c2oc3ccccc3c2n1 ?
Marked response: 0.1 to 0.5 µM

Exam item: So what does the record say about IC50 for CCc1nc(N2CC[C@H]2C(=O)O)c2oc3ccccc3c2n1 ?
Marked response: 1 to 10 µM

Exam item: Name the reported IC50 value associated with the compound O=C(O)[C@@H]1CCCN1c1nc(-c2ccccc2)nc2c1oc1ccccc12
Marked response: > 10 µM

Exam item: Please look up its IC50: Cc1nc(N2C[C@@H](NC(=O)C(C)(C)c3ccnc(C(F)(F)F)c3)C[C@H]2C(=O)O)c2oc3ccccc3c2n1
Marked response: 0.5 to 1 µM

Further cases:
Exam item: Can you look up the measured IC50 of Cc1nc(N2C[C@@H](Nc3n[nH]c4ccccc34)C[C@H]2C(=O)O)c2oc3ccccc3c2n1 for me?
Marked response: 0.5 to 1 µM

Exam item: Consider the compound shown here: Cc1nc(N2C[C@@H](NC(=O)C(C)(C)c3cn[nH]c3)C[C@H]2C(=O)O)c2oc3cc(F)ccc3c2n1 What is its recorded IC50?
Marked response: 0.1 to 0.5 µM

Exam item: Any idea what IC50 was measured for Cc1nc(N2C[C@@H](NC(=O)[C@H]3CN3)C[C@H]2C(=O)O)c2oc3ccccc3c2n1 ?
Marked response: 1 to 10 µM

Exam item: Suppose we examine the compound Cc1nc(N[C@@H](CCC(=O)O)C(=O)O)c2oc3ccccc3c2n1 ; what IC50 value has been reported?
Marked response: 1 to 10 µM

Exam item: GET /values?readout=IC50&item= Cc1nc(N2C[C@@H](CC(=O)Nc3ccccn3)C[C@H]2C(=O)O)c2oc3ccccc3c2n1
Marked response: 1 to 10 µM

Exam item: Need IC50 of Cc1nc(N2C[C@@H](Nc3n[nH]cc3C)C[C@H]2C(=O)O)c2oc3ccccc3c2n1 , thanks.
Marked response: 0.1 to 0.5 µM

Exam item: Can you share its IC50? I mean this compound: Cc1nc(N2CCC[C@H]2C(=O)O)c2oc3cc(F)ccc3c2n1
Marked response: 0.5 to 1 µM

Exam item: So what does the record say about IC50 for O=C(O)[C@@H]1CCCN1c1nc(C2CCCCC2)nc2c1oc1ccccc12 ?
Marked response: > 10 µM

Exam item: Given the compound C[C@H](Nc1nc(-c2ccccc2)nc2c1oc1ccccc12)C(=O)O , what is its reported IC50?
Marked response: 1 to 10 µM

Exam item: GET /values?readout=IC50&item= CNC(=O)C[C@H]1C[C@@H](C(=O)O)N(c2nc(C)nc3c2oc2ccccc23)C1
Marked response: 0.5 to 1 µM

====

Each entry below carries its recorded pIC50.
- targetDesc: cGAS (Homo sapiens)
- assayProtocol: cGAS enzymatic assay (FP/TR-FRET detection of cGAMP)
- Type: biochemical
- Set-up: The cGAS assay was used to screen 100,000 compounds with full-length human cGAS; 6xHis; made in house
- conditionsUsed: cGAS (30 nM); read-out: Inhibition cGAS
pIC50: −log10 of the molar value.

Some entries whose results are on file:
Exam item: Query the reported pIC50 for cGAS (Homo sapiens); item: Cc1nc(N2C[C@@H](Nc3cc[nH]n3)C[C@H]2C(=O)O)c2oc3ccccc3c2n1
Marked response: 6.30 to 7.00

Exam item: API: value(readout= pIC50, system= cGAS (Homo sapiens), query= CCc1nc(N2CCC[C@H]2C(=O)O)c2oc3ccccc3c2n1 [Compound 7] )
Marked response: 5.00 to 6.00

Exam item: Look up pIC50 with cGAS (Homo sapiens) for this molecule: Cc1nc(N2C[C@@H](CC(N)=O)C[C@H]2C(=O)O)c2oc3ccccc3c2n1
Marked response: 6.00 to 6.30

***
Exam item: Recall the recorded pIC50 for Cc1nc(N2C[C@@H](Nc3n[nH]cc3C3CC3)C[C@H]2C(=O)O)c2oc3ccccc3c2n1 with cGAS (Homo sapiens) and state it.
Marked response: 6.30 to 7.00

====

- Test system: IRF3-driven Luc expression in THP-1 Dual cells
- assayProtocol: THP-1 Dual IRF3-Luc reporter assay
- Assay type: cell-based, human
- conditionsUsed: Homo sapiens; THP1-dual cells; read-out: Cellular IRF3-Luc IC50
readoutType: pIC50
A value of pIC50 is the negative decimal logarithm of a concentration given in moles per litre.

Exam item: Name the reported pIC50 value associated with the compound Cc1nc(N2C[C@@H](CC(=O)Nc3ccncc3)C[C@H]2C(=O)O)c2oc3ccccc3c2n1
Marked response: 4.70

====

- Test system: MDR1 (P-glycoprotein)
- assayProtocol: MDCK-MDR permeability
- Format: in vitro ADME, canine
- conditionsUsed: dog, MDCK-MDR1; A→B
readoutType: Papp A→B (×10⁻⁶ cm/s)
Report only the number, with the unit ×10⁻⁶ cm/s understood.

Exam item: Looking for the measured Papp A→B of Cc1nc(N2CCC[C@H]2C(=O)O)c2oc3ccccc3c2n1 , can you help?
Marked response: 9.8

====

- targetDesc: cGAS (Homo sapiens)
- assayProtocol: cGAS enzymatic assay (FP/TR-FRET detection of cGAMP)
- Type: biochemical
- Design: The cGAS assay was used to screen 100,000 compounds with full-length human cGAS; 6xHis; made in house
- conditionsUsed: 5 mM Mg^2+, 0.2 mM Mn^2+; read-out: IC50 (5 mM Mg^2+, 0.2 mM Mn^2+)
readoutType: IC50 (µM)
Give the value, in units of µM, as a plain number.

Exam item: What reported IC50 corresponds to Cc1nc(N2CCC[C@H]2C(=O)O)c2oc3ccccc3c2n1 on cGAS (Homo sapiens)?
Marked response: 10.8

Now for a further compound.
Exam item: # get_value(readout= IC50, system= cGAS (Homo sapiens)) for CCc1nc(N2CCC[C@H]2C(=O)O)c2oc3ccccc3c2n1
Marked response: 19

====

- targetDesc: cGAS (Homo sapiens, UniProt Q8N884)
- Sequence (Q8N884 whole entry): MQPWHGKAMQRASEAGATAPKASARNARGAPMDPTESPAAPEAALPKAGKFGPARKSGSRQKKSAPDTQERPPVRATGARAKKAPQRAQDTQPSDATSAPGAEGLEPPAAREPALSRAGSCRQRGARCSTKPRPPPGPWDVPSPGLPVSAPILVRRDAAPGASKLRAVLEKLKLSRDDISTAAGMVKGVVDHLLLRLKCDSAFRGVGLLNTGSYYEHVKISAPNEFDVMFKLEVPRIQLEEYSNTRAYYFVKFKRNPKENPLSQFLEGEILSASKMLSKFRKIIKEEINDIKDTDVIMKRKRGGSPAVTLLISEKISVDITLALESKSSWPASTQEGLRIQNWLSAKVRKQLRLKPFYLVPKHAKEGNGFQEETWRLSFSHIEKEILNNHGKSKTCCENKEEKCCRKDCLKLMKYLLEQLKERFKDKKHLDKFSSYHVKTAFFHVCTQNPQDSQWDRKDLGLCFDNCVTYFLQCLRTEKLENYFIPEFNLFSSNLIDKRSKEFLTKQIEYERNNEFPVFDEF
- assayProtocol: cGAS enzymatic assay (FP/TR-FRET detection of cGAMP)
- Assay type: biochemical
- Set-up: The cGAS assay was used to screen 100,000 compounds with full-length human cGAS; 6xHis; made in house
- conditionsUsed: 100 μM ATP/GTP; read-out: Enzymatic FP Std (100 μM ATP/GTP) IC50
readoutType: IC50
In your response, the unit should come after the numeric value.

Exam item: Recorded IC50 of Cc1nc(N2C[C@@H](CC(=O)Nc3ccncc3)C[C@H]2C(=O)O)c2oc3ccccc3c2n1 , please.
Marked response: 356 nM

====

- targetDesc: cGAS (Homo sapiens)
- assayProtocol: cGAS enzymatic assay (FP/TR-FRET detection of cGAMP)
- Type: biochemical
- Parameters: The cGAS assay was used to screen 100,000 compounds with full-length human cGAS; 6xHis; made in house
- conditionsUsed: cGAS (30 nM); read-out: Inhibition cGAS
pIC50: −log10 of the molar value.
readoutType: pIC50

Exam item: What value of pIC50 has been recorded for this entry: Cc1nc(N2C[C@@H](NC(=O)C(C)(C)c3cn[nH]c3)C[C@H]2C(=O)O)c2oc3ccccc3c2n1
Marked response: 6.30 to 7.00

New cases:
Exam item: Consider the compound shown here: Cc1nc(N2C[C@@H](CC(=O)Nc3ccncc3)C[C@H]2C(=O)O)c2oc3ccccc3c2n1 What is its recorded pIC50?
Marked response: 6.30 to 7.00

Exam item: Entry Cc1nc(N2C[C@@H](NC(N)=O)C[C@H]2C(=O)O)c2oc3ccccc3c2n1 : reported pIC50 = ?
Marked response: 5.00 to 6.00

Exam item: What pIC50 value was documented for this compound, CC(C)(C(=O)N[C@H]1C[C@@H](C(=O)O)N(c2nc(C(F)(F)F)nc3c2oc2ccccc23)C1)c1cn[nH]c1 ?
Marked response: 6.00 to 6.30

Exam item: Look at this compound and give its reported pIC50. C[C@H]1C[C@@H](C(=O)O)N(c2nc(-c3ccccc3)nc3c2oc2ccccc23)C1
Marked response: 5.00 to 6.00

Exam item: Which pIC50 value belongs to Cc1nc(N2C[C@@H](NC(=O)C(C)(C)c3ccncc3)C[C@H]2C(=O)O)c2oc3ccccc3c2n1 ?
Marked response: 6.30 to 7.00
